Numbers sourced from patent US20040018971A1.

Target: T1, HLA-A*0202 (human)
T1 construct: purified HLA class I molecule
Test: competition for purified HLA vs 125I-labelled probe peptide, gel filtration
Please respond with reported IC50 for every item in the list.

# IC50 lookup, item YLIMVKCWMV (analog of Her2/neu.952 (10-mer)) [Her2/neu.952.L2V10]
56 nM

Can you handle KTFGSLAFV (analog of Her2/neu.369) [Her2/neu.369.T2V9] next?
13 nM

Now consider SLISAVVGV (analog of Her2/neu.653) [Her2/neu.653.L2V9] and answer again.
10 nM

Another binder to check: VLIQRNPQV (analog of Her2/neu.153) [Her2/neu.153.V9]
768 nM
